Value source: patent US20240270821A1

Target: hGLP-1R (Homo sapiens, UniProt P43220)
Sequence (P43220 24-463): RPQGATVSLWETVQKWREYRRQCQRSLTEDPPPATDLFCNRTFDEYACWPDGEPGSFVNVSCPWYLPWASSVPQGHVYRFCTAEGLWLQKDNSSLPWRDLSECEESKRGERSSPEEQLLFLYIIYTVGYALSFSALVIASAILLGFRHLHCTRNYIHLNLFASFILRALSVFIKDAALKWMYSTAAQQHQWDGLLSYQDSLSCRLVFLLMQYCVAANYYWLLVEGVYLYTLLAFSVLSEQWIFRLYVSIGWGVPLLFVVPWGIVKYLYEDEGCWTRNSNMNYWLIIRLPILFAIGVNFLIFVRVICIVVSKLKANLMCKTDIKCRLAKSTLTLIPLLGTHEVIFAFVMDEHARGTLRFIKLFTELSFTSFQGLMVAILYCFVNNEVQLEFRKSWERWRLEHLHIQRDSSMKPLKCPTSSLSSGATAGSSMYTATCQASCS
Assay: cell-based or functional assay
List of log10 of cAMP Rel EC50 (in the presence of 1% HSA) values.
OBSERVABLE: log10 of cAMP Rel EC50 (in the presence of 1% HSA) (log10 of the value in nM)

BINDER	ASSAY RESULT
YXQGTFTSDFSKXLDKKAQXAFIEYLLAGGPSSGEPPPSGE (synthetic construct; SITE 2: note = 2-Aminoisobutyric Acid; SITE 13: note = alpha-methyl-leucine; SITE 17: note = Lysine is chemically modified through conjugation of the epsilon-amino group of the Lysine side chain with (2-[2-(2-Amino-ethoxy)-ethoxy]-acetyl)-(gamma-Glu)-CO-(CH2) 18-CO2H; SITE 20: n) [Example 2]	2.80
YXQGTXTSDYSKXLDKKAQXQFIEYLEEGGPSSGEPPPSEG (non-natural residues; lipidated Lys; C-terminal amide; synthetic construct; SITE 2: note = 2-Aminoisobutyric Acid; SITE 6: note = alpha-methyl-2-fluoro-L-phenylalanine; SITE 13: note = alpha-methyl-leucine; SITE 17: note = Lysine is chemically modified through conjugation of the epsilon-amino group of the Lysine side chain with (2-[2-(2-Amino-ethoxy)-et)) [Example 292]	2.11
YXQGTFTSDFSKXLDKKAQXAFIEYLLAGGPSSGEPPPSEE (synthetic construct; SITE 2: note = 2-Aminoisobutyric Acid; SITE 13: note = alpha-methyl-leucine; SITE 17: note = Lysine is chemically modified through conjugation of the epsilon-amino group of the Lysine side chain with (2-[2-(2-Amino-ethoxy)-ethoxy]-acetyl)-(gamma-Glu)-CO-(CH2) 18-CO2H; SITE 20: n) [Example 4]	2.94
YXQGTXTSDXSILLDKKAQXAFIEYLEEGGPSSGAPPPSGAGE (non-natural residues, acylated Lys, C-terminal amide; synthetic construct; SITE 2: note = 2-Aminoisobutyric Acid; SITE 6: note = alpha-methyl-2-fluoro-L-phenylalanine; SITE 10: note = 3-(4-Pyridyl)-L-alanine; SITE 17: note = Lysine is chemically modified through conjugation of the epsilon-amino group of the Lysine side chain with (gamma-Glu)2-CO-(CH2)1) [Example 620]	1.96
YXQGTXTSDXSIXLDXKAQXEFIEXLIEGGPSSGAPPPSGS (Aib, αMeF(2F), 4Pal, αMeL, Orn, Me4Pal, αMeY; lipidated Lys; amide; synthetic construct; SITE 2: note = 2-Aminoisobutyric Acid; SITE 6: note = alpha-methyl-2-fluoro-L-phenylalanine; SITE 10: note = 3-(4-Pyridyl)-L-alanine; SITE 13: note = alpha-methyl-leucine; SITE 16: note = L-ornithine; SITE 17: note = Lysine is chemically modified through conjugation of the epsil) [Example 640]	1.44
YXQGTFTSDXSKXLDKKAQXAFIEYLIEXGESSGEPPPSGS (non-natural residues; C18 diacid-γGlu-AEEA on Lys; C-terminal amide; synthetic construct; SITE 2: note = 2-Aminoisobutyric Acid; SITE 10: note = 3-(4-Pyridyl)-L-alanine; SITE 13: note = alpha-methyl-leucine; SITE 17: note = Lysine is chemically modified through conjugation of the epsilon-amino group of the Lysine side chain with (2-[2-(2-Amino-ethoxy)-ethoxy]-acetyl)) [Example 282]	2.34
